# reported fold induction at 10 µM; entries follow
- Tested on: primary rat mixed cortical cells
- experimentalDetails: In vitro myelination assay (MBP positive myelin strands, fold myelin pixels above background)
- Type: cell-based
- settings: Rattus norvegicus, 10.0 μM compound, relative to baseline of no added compound; read-out: Fold myelin pixels above background, 10.0 μM

Known results for compounds:
INPUT: Report value: fold induction at 10 µM, system: primary rat mixed cortical cells, compound: Cc1cc(Nc2ncn(-c3ccccc3)n2)cc(N2CCN(C3CCOCC3)CC2)c1 [Compound 289]
OUTPUT: 1 to 10

INPUT: Report value: fold induction at 10 µM, system: primary rat mixed cortical cells, compound: Cc1cc(Nc2ncn(-c3cccc(OC(F)(F)F)c3)n2)cc(N2CCN(C3COC3)CC2)c1 [Compound 252]
OUTPUT: 10 to 100

INPUT: Report value: fold induction at 10 µM, system: primary rat mixed cortical cells, compound: Fc1cc(Nc2ncn(-c3ccccc3)n2)cc(N2CCCC2)c1 [Compound 336]
OUTPUT: ≤ 1

Continuing:
INPUT: Report value: fold induction at 10 µM, system: primary rat mixed cortical cells, compound: Cc1cc(Nc2ncn(-c3cc(F)cc(F)c3)n2)cc(N2CC(O)C2)c1 [Compound 355]
OUTPUT: 100 to 1000

Reference for the values: patent US10766869B2
